Test system: EKVX NSCLC
assay.summary: NCI tumour cell line growth inhibition, 48 h
Here the recorded TGI is given for each entry.
measurement.label: TGI

INSERT INTO assay_data (molecule, test_result) VALUES
  ('O=C1/C(=C/c2ccc(F)cc2)COc2ccc(O)c(O)c21', '18.4 µM'),
  ('COc1ccc(CCN2CCCn3c2nc2ccccc2c3=O)cc1', '> 100 µM'),
  ('O=C(O)CCC(O)=C1S(=O)(=O)OCCOS1(=O)=O', '> 100 µM'),
  ('O=C(COc1cc(=O)oc2ccccc12)c1ccccc1', '> 100 µM'),
  ('O=[N+]([O-])c1ccc(C[P+]2(c3ccccc3)CCCCC2)cc1 (tested in a mixture with another compound)', '> 100 µM'),
  ('CC1(Cl)C(=O)NC(=O)N([C@H]2C[C@H](O)[C@@H](CO)O2)C1N=[N+]=[N-] (some centres undefined)', '> 100 µM'),
  ('CNC(=O)[C@H](Cc1c[nH]c2ccccc12)NC(=O)[C@@H](CC(=O)NO)CC(C)C', '> 25 µM'),
  ('COc1cc(C[C@@]2(C)[C@@H]3CCC[C@H](CO)[C@@]3(C)CC[C@@H]2C)c(Cl)c(OC)c1', '27.5 µM'),
  ('COc1ccc2nc3cc(Cl)ccc3c(Nc3ccccc3-c3ccccc3Nc3c4ccc(Cl)cc4nc4ccc(OC)cc34)c2c1', '> 100 µM');

----------
Here the recorded TGI is given for each entry.
System: SNB-78 CNS
assay.summary: NCI tumour cell line growth inhibition, 48 h
measurement.label: TGI

INSERT INTO assay_data (compound, test_result) VALUES
  ('CC(=O)OC1(Sc2ccccc2)CC2[C@H]3COC(C)(C)O[C@H]3CC[C@@]2(C)CC1=O (some centres not stated)', '> 100 µM'),
  ('Cc1c(C)c2cc3c(=O)c(CCl)coc3c(C)c2oc1=O', '> 100 µM'),
  ('COc1ccc2nc3cc(Cl)ccc3c(Nc3ccccc3-c3ccccc3Nc3c4ccc(Cl)cc4nc4ccc(OC)cc34)c2c1', '> 100 µM'),
  ('N#CN1CC[C@@H]2CC3(CCC2C1)OCCO3 (some centres not stated)', '> 100 µM'),
  ('O=C1NC(c2ccccc2)(c2ccccc2)C(=O)N1CCCCCCN1C(=O)NC(c2ccccc2)(c2ccccc2)C1=O', '> 100 µM'),
  ('COC1CCCc2c(OC(C)=O)ccc(OC(C)=O)c21 (configuration not stated)', '> 100 µM'),
  ('COc1ccc2c(=O)c(-c3cc(OC)c(OC)cc3OC)coc2c1', '> 100 µM'),
  ('N.N.N.N.N#N.N#N.[Cl-].[Os+6]', '> 100 µM'),
  ('Cc1ccc(C(=O)Nc2ccc(S(=O)(=O)O)c3cc(S(=O)(=O)O)cc(S(=O)(=O)O)c23)cc1NC(=O)c1cccc(NC(=O)Nc2cccc(C(=O)Nc3cc(C(=O)Nc4ccc(S(=O)(=O)O)c5cc(S(=O)(=O)O)cc(S(=O)(=O)O)c45)ccc3C)c2)c1', '> 100 µM'),
  ('Cn1cc(-c2ccc3c4ccccc4n(C)c3c2)c2ccccc21', '> 100 µM'),
  ('Cn1c(=O)nc2n(-c3ccc(Br)cc3)c3ccccc3nc-2c1=O', '35.1 µM'),
  ('CC1=CC(=O)NP(=O)(Oc2ccc(Cl)cc2)N1 (configuration not stated)', '> 100 µM'),
  ('O=C(n1c2ccccc2c2n[nH]c(=S)nc21)C(F)(F)F', '> 100 µM'),
  ('COCN1COCN(C)C1=O', '> 100 µM'),
  ('COc1ccc2[nH]c3c(C)c4c(c(C)c3c2c1)CN(C)C=C4', '4.91 µM'),
  ('Cc1cc(NS(=O)(=O)c2ccc(NC(=O)c3ccc(Cl)c4c(Nc5ccc(S(=O)(=O)Nc6cc(C)on6)cc5)c5ccccc5nc34)cc2)no1', '84.1 µM'),
  ('O=C(CC1(O)C(=O)Nc2ccccc21)c1ccc(Cl)c(Cl)c1 (configuration not stated)', '> 100 µM');
